# TARGET_ENTITY: Amine oxidase [flavin-containing] A (Homo sapiens)
# Sequence (P21397 whole entry): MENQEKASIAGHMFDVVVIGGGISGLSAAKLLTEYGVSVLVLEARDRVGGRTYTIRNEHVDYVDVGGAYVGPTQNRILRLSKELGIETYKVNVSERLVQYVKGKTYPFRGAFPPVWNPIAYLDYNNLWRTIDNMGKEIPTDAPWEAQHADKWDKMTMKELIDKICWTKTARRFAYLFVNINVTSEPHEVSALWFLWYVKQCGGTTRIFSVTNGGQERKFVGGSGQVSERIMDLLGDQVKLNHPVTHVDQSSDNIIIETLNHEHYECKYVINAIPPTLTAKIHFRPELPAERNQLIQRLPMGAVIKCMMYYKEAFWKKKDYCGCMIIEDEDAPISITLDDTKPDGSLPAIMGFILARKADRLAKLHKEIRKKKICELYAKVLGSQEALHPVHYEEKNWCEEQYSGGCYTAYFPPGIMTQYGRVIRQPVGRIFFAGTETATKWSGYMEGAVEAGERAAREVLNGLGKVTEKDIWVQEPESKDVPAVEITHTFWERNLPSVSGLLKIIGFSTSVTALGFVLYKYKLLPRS
# ASSAY_REMARKS: Inhibition of human recombinant MAOA
RECORDED_METRIC: IC50 (µM)
# value in µM; strip the unit string

Dear colleague, I am looking for the recorded IC50 of the following compound: Cc1ccc(C2CC(c3ccco3)=NN2C(N)=S)cc1 (stereo not drawn)
65.8

Record request: IC50 value, item NC(=S)N1N=C(c2cccs2)CC1c1ccc[nH]1 (stereo not drawn)
70

May I ask what IC50 has been recorded for NC(=S)N1N=C(c2ccccc2)CC1c1ccco1 (stereo not drawn) ?
54.7

###

# Species on record: Homo sapiens
# ASSAY_REMARKS: Selectivity, ratio of IC50 for human recombinant MAOA to human recombinant MAOB
Assignment: determine reported Ratio IC50 for the given compounds.

Which Ratio IC50 reading was recorded for the compound NC(=S)N1N=C(c2ccc[nH]2)CC1c1ccco1 (stereo not given) ?
> 1.4

# Ratio IC50 lookup, item Cc1ccc(C2CC(c3ccco3)=NN2C(N)=S)cc1 (stereo not given)
1.2

So what's the measured Ratio IC50 for this one? NC(=S)N1N=C(c2ccccc2)CC1c1ccccc1 (stereo not given)
> 2.1

Using the record for NC(=S)N1N=C(c2ccccc2)CC1c1ccco1 (stereo not given) , report its Ratio IC50.
1.7

Entry NC(=S)N1N=C(c2cccs2)CC1c1ccc[nH]1 (stereo not given) has what Ratio IC50?
2.1

All values here come from ChEMBL document CHEMBL1153747.
